# Test system: SK-OV-3 ovarian
# TEST: NCI tumour cell line growth inhibition, 48 h; in the data active means GI50 below about 0.43 µM; inactive means the rest
Possible outcomes: active, inactive

>  <COMPOUND>
Nc1ccc(C(=O)c2ccc(N)c(Br)c2)cc1Br

>  <CLASS>
active

$$$$
>  <COMPOUND>
COc1cc(NC(=O)c2cc(OC)c3ccn(C)c3c2)cc2c1C[C@]1(C)CC[C@@H](O)C(C)(C)[C@H]1O2

>  <CLASS>
inactive

$$$$
>  <COMPOUND>
NCCCC(=O)Nc1ccncc1

>  <CLASS>
inactive

$$$$
>  <COMPOUND>
CCN(CC)CCOc1ccc(Nc2ncc3cc(-c4ccc(O)cc4)c(=O)n(C)c3n2)cc1

>  <CLASS>
active

$$$$
>  <COMPOUND>
Cn1ccc2c(NCCN)c3c(c(NCCN)c21)C(=O)c1ccccc1C3=O

>  <CLASS>
inactive

$$$$
>  <COMPOUND>
COc1cc(Cl)cc(-c2nn(C(=O)NCCN3CCN(C)CC3)cc2-c2ccncc2)c1

>  <CLASS>
inactive

$$$$
>  <COMPOUND>
N#CC1=C(N)NC(=S)NC12Nc1ccccc1O2 (stereo not given)

>  <CLASS>
inactive

$$$$
>  <COMPOUND>
CC(C)(C)C(=O)Nc1ccccc1I(=O)=O

>  <CLASS>
inactive

$$$$
>  <COMPOUND>
CC1(C)NCCC[C@]2(C)[C@H]3C=CC4=C5C[C@](C)(CO)CC[C@]5(C)CC[C@@]4(C)[C@]3(C)CC[C@@H]12

>  <CLASS>
inactive

$$$$
>  <COMPOUND>
CCC1=C[C@@H]2CN(C1)Cc1c([nH]c3ccccc13)[C@@](C(=O)OC)(c1cc3c(cc1OC)N(C=O)[C@H]1[C@@](O)(C(=O)OC)[C@H](OC(C)=O)[C@]4(CC)[C@@H]5C[C@@H]5CN5CC[C@]31[C@@H]54)C2

>  <CLASS>
active

$$$$

* * *

Known TGI of a selection of molecules
# Test system: LOX IMVI melanoma
# TEST: NCI tumour cell line growth inhibition, 48 h

>  <MOLECULE>
O=C1C=C(N2CCCC2)C(=O)c2c(O)ccc(O)c21

>  <TGI>
> 10 µM

$$$$
>  <MOLECULE>
C[C@@H]1O[C@@H](O[C@@H]2[C@@H](O)[C@H](OCCc3ccc(O)c(O)c3)O[C@H](COC(=O)/C=C/c3ccc(O)c(O)c3)[C@H]2O)[C@H](O)[C@H](O)[C@H]1O

>  <TGI>
34.4 µM

$$$$
>  <MOLECULE>
N#Cc1nc(C(F)(F)F)oc1N

>  <TGI>
> 100 µM

$$$$
>  <MOLECULE>
COc1ccc2c(c1)c(=O)c1c(NCCCN(C)CCCNc3ccc4c(=O)n(CCN(C)C)c(=O)n5c6ccc(OC)cc6c(=O)c3c45)ccc3c(=O)n(CCN(C)C)c(=O)n2c31

>  <TGI>
0.161 µM

$$$$
>  <MOLECULE>
O=C1c2cc([N+](=O)[O-])cnc2S(=O)(=O)N1c1ccc(Br)cc1

>  <TGI>
> 100 µM

$$$$
>  <MOLECULE>
Cc1ccc(S(=O)(=O)NC(=O)NC(Cc2ccccc2)C(=O)O)cc1 (centres undefined)

>  <TGI>
> 100 µM

$$$$
>  <MOLECULE>
Cc1ccc(S(=O)(=O)N(CC(O)c2ccccc2)c2ccccc2F)cc1 (centres undefined)

>  <TGI>
31.5 µM

$$$$
>  <MOLECULE>
CCOC(=O)CCCn1c(SC)nc2cc(-c3ccco3)[nH]c2c1=O

>  <TGI>
> 100 µM

$$$$
>  <MOLECULE>
CN1c2ccccc2C(=O)NC12CCN(Cc1ccccc1)CC2

>  <TGI>
> 100 µM

$$$$

* * *

# Tested on: 786-0 renal
# TEST: NCI tumour cell line growth inhibition, 48 h
REPORTED METRIC: GI50

>  <MOLECULE>
C/C=C(\C)C(=O)N[C@H]1[C@@H](OC(C)=O)C[C@]2(C)C3CC[C@@]4(C)C(CC[C@@H]4C(C)N(C)C)C3CCC2[C@H]1O (stereo partly specified)

>  <REPORTED METRIC>
GI50

>  <RESULT>
5.22 µM

$$$$
>  <MOLECULE>
CC(=O)[CH-]C(=O)c1ccccc1.CC(=O)[CH-]C(=O)c1ccccc1.CC(=O)[CH-]C(=O)c1ccccc1.[Tl+3]

>  <REPORTED METRIC>
GI50

>  <RESULT>
49.2 µM

$$$$
>  <MOLECULE>
Cn1ccc2c(NCCN)c3c(c(NCCN)c21)C(=O)c1ccccc1C3=O

>  <REPORTED METRIC>
GI50

>  <RESULT>
0.443 µM

$$$$
>  <MOLECULE>
CCCc1ccc(S(=O)(=O)N[C@H]2CC[C@H]3[C@@H]4CCc5cc(O)ccc5[C@H]4CC[C@]23C)cc1

>  <REPORTED METRIC>
GI50

>  <RESULT>
3.02 µM

$$$$
>  <MOLECULE>
N=C1c2nc3n(c2C(=O)c2nc4n(c21)CCCC4)CCCC3

>  <REPORTED METRIC>
GI50

>  <RESULT>
32.2 µM

$$$$
>  <MOLECULE>
CCOC(=O)Cc1csc(/N=C2\NC(=O)/C(=C3\C(=O)N(C)c4ccccc43)S2)n1

>  <REPORTED METRIC>
GI50

>  <RESULT>
28 µM

$$$$
>  <MOLECULE>
COc1ccc(C2=NN(C(=O)COc3ccc(Cl)cc3)C(O)(c3cc(F)c(Cl)cc3Cl)C2)cc1OC (stereo unspecified)

>  <REPORTED METRIC>
GI50

>  <RESULT>
3.31 µM

$$$$
>  <MOLECULE>
O=C(Nc1ccc(-n2cc(-c3ccncc3)c(-c3ccc(Cl)c(O)c3)n2)cc1)Nc1cc(C(F)(F)F)cc(C(F)(F)F)c1

>  <REPORTED METRIC>
GI50

>  <RESULT>
1.8 µM

$$$$
>  <MOLECULE>
C=C1CC[C@@]2(C#N)[C@H]3[C@H](CC[C@@H]2C)[C@@H](C)C[C@@H](CC(C)(C)C#N)[C@H]13

>  <REPORTED METRIC>
GI50

>  <RESULT>
2.33 µM

$$$$
>  <MOLECULE>
O=C(NC1CC1)c1ccc(-c2nc3ccc4[nH]ncc4c3c3c2CCCC3)cc1

>  <REPORTED METRIC>
GI50

>  <RESULT>
2.11 µM

$$$$
>  <MOLECULE>
NCCCC(=O)Nc1ccncc1

>  <REPORTED METRIC>
GI50

>  <RESULT>
> 100 µM

$$$$
>  <MOLECULE>
CN(NC(=O)CC(=O)NN(C)C(=S)c1ccccc1)C(=S)c1ccccc1

>  <REPORTED METRIC>
GI50

>  <RESULT>
56.3 µM

$$$$
>  <MOLECULE>
O=C(c1cc(F)c(Cl)cc1Cl)N1N=C(c2ccccc2)CC1(O)c1ccccc1 (stereo unspecified)

>  <REPORTED METRIC>
GI50

>  <RESULT>
15.8 µM

$$$$
>  <MOLECULE>
CCCCCNC(=O)[C@@H]1CCCN2C(=O)CC[C@H](NC(=O)[C@H](Cc3ccc(OP(=O)(O)O)cc3)NC(C)=O)C(=O)N12

>  <REPORTED METRIC>
GI50

>  <RESULT>
> 25 µM

$$$$
>  <MOLECULE>
CC(=O)C1CC2(c3ccc(C)cc3)C(c3ccc(C)cc3)=C(c3ccc(C)cc3)C1(c1ccc(C)cc1)S2=O (stereo unspecified)

>  <REPORTED METRIC>
GI50

>  <RESULT>
> 100 µM

$$$$
>  <MOLECULE>
c1ccc2[nH]c(SSc3nc4ncncc4[nH]3)nc2c1

>  <REPORTED METRIC>
GI50

>  <RESULT>
0.463 µM

$$$$

* * *

Known TGI of a selection of molecules
# Test system: HOP-92 NSCLC
# TEST: NCI tumour cell line growth inhibition, 48 h
REPORTED METRIC: TGI (µM)

>  <MOLECULE>
c1cc2c(cc1C(N1CCNCC1)N1CCNCC1)OCO2

>  <VALUE QUALIFIER>
>

>  <NUMBER>
100

$$$$
>  <MOLECULE>
NCCCN(CCCN)CCCNCc1c2ccccc2c(CNCCCN(CCCN)CCCN)c2ccccc12

>  <VALUE QUALIFIER>
=

>  <NUMBER>
89.1

$$$$
>  <MOLECULE>
COc1ccc2c(c1)nc(N)c1c3cc(OC)c(OC)cc3cn21

>  <VALUE QUALIFIER>
=

>  <NUMBER>
23.9

$$$$
>  <MOLECULE>
N#CC1=C(N)NC(=S)NC12Nc1ccccc1O2 (centres undefined)

>  <VALUE QUALIFIER>
>

>  <NUMBER>
100

$$$$
